Consider the following molecules; for each one, report its melting point.
Structures can show the parent of a compound that is named as a salt.
Numeric only. Scale: °C

### Prompt Entry under review: Cc1cccc(C)c1C(CN(C)CC1CC1)OCCCc1c(F)cccc1F (stereo not drawn) [Example 10] . Reported melting point?
### Response 78

### Prompt Would you kindly share the measured melting point for Cc1cccc(C)c1C(CN1CCCCC1)NCCCc1c(F)cccc1F (stereo not drawn) (as salt: hydrochloride) [Example 35] ?
### Response 145

### Prompt Look up melting point for this molecule: Cc1cccc(C)c1C(CNCc1ccccc1)OCCCc1c(F)cccc1F (stereo not drawn) (as salt: hydrochloride) [Example 23]
### Response 176

### Prompt Need melting point, item C=C(C)C1CC=C(CNCC(OCCCc2c(F)cccc2F)c2c(C)cccc2C)CC1 (stereo not drawn) (as salt: hydrochloride) [Example 25]
### Response 155

### Prompt Given the entry Cc1cccc(C)c1C(CN(Cc1ccccc1)Cc1ccccc1)OCCCc1c(F)cccc1F (stereo not drawn) (as salt: hydrochloride) [Example 24] , report its measured melting point.
### Response 108

### Prompt Which melting point is reported for this molecule? Cc1cccc(C)c1C(C[N+](C)(C)C)OCCCc1c(F)cccc1F.[I-] (stereo not drawn)
### Response 190

* * *

Where a name gives a salt, the structure may show the parent alone.
METRIC NAME: melting point

### Prompt Quick one: melting point for Cc1cccc(C)c1C(CN1CCCCC1)OCc1ccc(Cl)cc1 (stereo not shown) (as salt: hydrochloride) ?
### Response 134 to 135 °C

### Prompt // melting point lookup, key: Cc1cccc(C)c1C(CN1CCCCC1)OCc1c(F)cccc1F (stereo not shown) (as salt: hydrochloride)
### Response 183 to 185 °C

### Prompt What does the data say about its melting point? Entry: Cc1cccc(C)c1C(CN1CCCCC1)OCc1ccc(Br)cc1 (stereo not shown) (as salt: hydrochloride)
### Response 152 to 154 °C

### Prompt Tell me the measured melting point of Cc1cccc(C)c1C(CN1CCCCC1)OCCCc1c(F)cccc1F (stereo not shown) (as salt: hydrochloride) , please.
### Response > 200 °C

* * *

Provide the recorded melting point for the entries that follow.
Counter-ions that a name gives are not always drawn.

### Prompt Which melting point reading was recorded for the compound Cc1cccc(C)c1C(CN1CCCCC1)OCc1c(Cl)cccc1Cl (stereo not drawn) (as salt: hydrochloride) ?
### Response 225 to 227 °C

### Prompt Fill in: melting point of Cc1cccc(C)c1C(CN1CCCCC1)OCc1ccccc1 (stereo not drawn) (as salt: hydrochloride) is ___
### Response 197 to 199 °C

### Prompt Need melting point of Cc1cccc(C)c1C(CN1CCCCC1)OCc1ccc(Br)cc1Cl (stereo not drawn) (as salt: hydrochloride) , thanks.
### Response 222 to 224 °C
